- Tested on: MDA-N
- measurement.notes: NCI screen, growth of human tumor cells: Breast Cancer MDA-N
- Assay type: cell-based
- condition.set: 10^−4 molar
metric: percent of growth of human tumor cells (%)

>>> print(df.to_string())
                                   compound  numeric_result
0  O=S1(=O)OCCOS(=O)(=O)C1Cc1nc2ccccc2[nH]1               3
1  CC1=C(CC2S(=O)(=O)OCCOS2(=O)=O)C(=O)c2ccccc2C1=O             −59
2         CCOCC1(COCC)S(=O)(=O)OCCOS1(=O)=O               3
3  O=S1(=O)OCCOS(=O)(=O)C1c1cccc2cccnc12 [NSC 698122, ethylene 8-quinolylmethanedisulfonate]              10
4  O=S1(=O)OCCOS(=O)(=O)C1C1c2ccccc2-c2ccccc21 [NSC 686562, ethylene 9-fluorenylmethanedisulfonate]              17

These entries and their values trace back to patent US8124793B2.
